Origin of the recorded values: patent US20240150293A1

- measuredOn: Cy5-labelled Mcl1 (amino acids 171-321) C286S protein (UniProtKB Q07820) (Homo sapiens (Human), UniProt Q07820, C286S)
- Sequence (Q07820 171-321 C286S): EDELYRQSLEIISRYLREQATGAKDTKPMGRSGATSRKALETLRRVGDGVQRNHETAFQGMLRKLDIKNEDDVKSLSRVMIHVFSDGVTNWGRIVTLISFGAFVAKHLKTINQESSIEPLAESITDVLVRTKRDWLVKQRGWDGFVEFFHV
- methodNotes: Inhibition of Mcl-1 by the fluorescence quenching assay (Example A, Method B)
- Type: binding
pKi: −log10 of the molar value.
metric: pKi

Some molecules with recorded pKi:
{"columns": ["molecule", "pKi"],
 "data": [
  ["C[C@@H](COc1ccnc2c1[C@H](C)CCC2)C[C@H]1Cc2cc3c(cc2[C@]12CC[C@@](Nc1cccc(Cl)c1)(C(=O)O)CC2)OC[C@H](C)O3 [Example 971]", 10.84],
  ["C[C@@H](COc1ccnc2c1[C@H](C)CCC2)CC1Cc2c(Cl)cccc2[C@]12CC[C@@](Nc1cccc(Cl)c1)(C(=O)O)CC2 (single isomer, unassigned) [Example 741]", 8.80],
  ["C[C@@H](CNc1ccncc1)C[C@@H]1Cc2ccccc2[C@]12CC[C@@](Nc1cccc(Cl)c1)(C(=O)O)CC2 [Example 574]", 6.66],
  ["C[C@@H](COc1ccnc2c1[C@H](C)CCC2)C[C@H]1Cc2ccccc2[C@]12CC[C@@](Nc1cc(F)cc(Cl)c1)(C(=O)O)CC2 [Example 704]", 8.83],
  ["COc1cccc(-c2ccc3c(c2)[C@]2(CC[C@@](Nc4cccc(Cl)c4)(C(=O)O)CC2)[C@@H](C[C@@H](C)COc2ccnc4c2[C@H](C)CCC4)C3)c1 [Example 877]", 9.19]
]}

a = C[C@@H](COc1ccnc2c1[C@H](C)CCC2)C[C@H]1Cc2cc3c(cc2[C@]12CC[C@@](Nc1cccc(Cl)c1)(C(=O)Oc1ccc4c(c1)CCC4)CC2)OCO3 [Example 937]
b = CC(=O)c1cc2c(cc1F)C=C(C[C@@H](C)COc1ccnc3c1[C@@H](C)CCC3)[C@]21CC[C@](Nc2cccc(Cl)c2)(C(=O)O)CC1 [Example 873]
c = C[C@@H](COc1ccnc2c1[C@H](C)CCC2)C[C@@H]1Cc2cc(Cl)ccc2[C@]12CC[C@@](Nc1cccc(Cl)c1)(C(=O)O)CC2 [Example 779]
d = CC(OC(=O)OC1CCCC1)OC(=O)[C@]1(Nc2cccc(Cl)c2)CC[C@@]2(CC1)c1cc3c(cc1C[C@@H]2C[C@@H](C)COc1ccnc2c1[C@H](C)CCC2)OCO3 (some centres unmarked) [Example 945]
Req: Please give the order of these molecules when sorted by pKi, largest value leading. Ranked list of labels, please, in the requested order.
Resp: c, b, a, d
(c: 9.37, b: 8.38, a: 7.55, d: 6.79)

---

- measuredOn: Cy5-labelled Mcl1 (amino acids 171-321) C286S protein (UniProtKB Q07820) (Homo sapiens (Human), UniProt Q07820, C286S)
- methodNotes: Inhibition of Mcl-1 by the fluorescence quenching assay (Example A, Method B)
- Format: binding
pKi: −log10 of the molar value.
metric: pKi

Some compounds with recorded pKi:
{"columns": ["compound", "assayValue"],
 "data": [
  ["O=C(O)[C@]1(Nc2cccc(Cl)c2)CC[C@@]2(CC1)c1ccccc1C[C@H]2CCCOc1cccc2[nH]ccc12", 7.34],
  ["CC1CCc2nccc(OC[C@H](C)CC3=Cc4ccccc4[C@]34CC[C@@](Nc3cccc(Cl)c3)(C(=O)O)CC4)c21 (single isomer, unassigned) [Example 629]", 8.02],
  ["CC(O)c1ccc2c(c1)[C@]1(CC[C@@](Nc3cccc(Cl)c3)(C(=O)O)CC1)[C@@H](C[C@@H](C)COc1ccnc3c1[C@H](C)CC[C@H]3C)C2 (stereo partly drawn)", 9.69],
  ["CC(O)c1ccc2c(c1)[C@]1(CC[C@@](Nc3cccc(Cl)c3)(C(=O)O)CC1)[C@@H](C[C@@H](C)COc1ccnc3c1[C@H](C)CCC3)C2 (single isomer, unassigned) [Example 860]", 10.73]
]}

A = Cc1cc2c(cc1C)[C@]1(CC[C@@](Nc3cccc(Cl)c3)(C(=O)O)CC1)[C@H](C[C@@H](C)COc1ccnc3c1[C@H](C)CCC3)C2
B = C[C@@H](COc1ccnc2c1[C@H](C)CCC2)C[C@@H]1Cc2ccc(-c3ccsc3)cc2[C@]12CC[C@@](Nc1cccc(Cl)c1)(C(=O)O)CC2
Req: Compare A and B and name the one whose reported pKi is smaller. State your choice using its label.
Resp: B

---

- measuredOn: Mcl-1 protein (UniProtKB Q07820) (Homo sapiens (Human), UniProt Q07820)
- Sequence (Q07820 whole entry): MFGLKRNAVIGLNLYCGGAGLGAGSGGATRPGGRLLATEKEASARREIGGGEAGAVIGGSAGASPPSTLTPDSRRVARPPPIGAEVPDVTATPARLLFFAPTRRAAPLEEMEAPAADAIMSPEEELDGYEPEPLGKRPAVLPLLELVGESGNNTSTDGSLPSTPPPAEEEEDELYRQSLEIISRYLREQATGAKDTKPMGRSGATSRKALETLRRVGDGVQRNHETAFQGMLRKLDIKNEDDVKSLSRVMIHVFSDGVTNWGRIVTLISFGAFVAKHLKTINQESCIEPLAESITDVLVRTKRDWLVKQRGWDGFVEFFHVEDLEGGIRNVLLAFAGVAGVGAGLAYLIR
- methodNotes: Inhibition of Mcl-1 by the fluorescence polarisation assay (Example A, Method A)
- conditionDescription: fluorescence polarization assay
pKi: −log10 of the molar value.
metric: pKi

{"columns": ["compound", "metric", "assayValue"],
 "data": [
  ["O=C(O)[C@]1(Nc2cccc(Cl)c2)CC[C@@]2(CC1)c1ccccc1CC2CCCOc1ccnc2c1CCCC2O (stereo partly drawn)", "pKi", 7.02]
]}

P = O=C(O)[C@]1(Nc2cccc(Cl)c2)CC[C@@]2(CC1)c1ccccc1CC2CCCOc1n[nH]c2c1CCCC2 (stereo partly drawn)
Q = CCOc1ccc2c(c1)[C@]1(CC[C@@](Nc3cccc(Cl)c3)(C(=O)O)CC1)C(c1cccc(Oc3ccccc3)c1)C2 (single isomer, unassigned)
Req: # returns the entry with the larger pKi; inputs P and Q State your choice using its label.
Resp: Q
(Q: 6.79, P: 5.76)

---

- measuredOn: Cy5-labelled Mcl1 (amino acids 171-321) C286S protein (UniProtKB Q07820) (Homo sapiens (Human), UniProt Q07820, C286S)
- methodNotes: Inhibition of Mcl-1 by the fluorescence quenching assay (Example A, Method B)
- Type: binding
metric: Ki (nM)

{"columns": ["compound", "Ki / nM"],
 "data": [
  ["CC(CC1Cc2ccccc2[C@]12CC[C@@](Nc1cccc(Cl)c1)(C(=O)O)CC2)C1CCC(=O)CC1 (single isomer, unassigned) [Example 570]", 363]
]}

A = O=C(O)[C@]1(Nc2cccc(Cl)c2)CC[C@@]2(CC1)c1ccccc1CC2CC(CO)COc1ccnc2c1CCC2 (single isomer, unassigned) [Example 499]
B = COCc1ccc2c(c1)[C@]1(CC[C@@](Nc3cccc(Cl)c3)(C(=O)O)CC1)[C@H](C[C@@H](C)COc1ccnc3c1[C@H](C)CCC3)C2 [Example 920]
Req: Compare A and B and name the one whose reported Ki is smaller. State your choice using its label.
Resp: B
(B: 3.85 nM, A: 74.1 nM)

---

- measuredOn: Cy5-labelled Mcl1 (amino acids 171-321) C286S protein (UniProtKB Q07820) (Homo sapiens (Human), UniProt Q07820, C286S)
- methodNotes: Inhibition of Mcl-1 by the fluorescence quenching assay (Example A, Method B)
- Format: binding
- conditionDescription: Ki determined from IC50
metric: Ki (nM)

{"columns": ["compoundStructureString", "Ki [nM]"],
 "data": [
  ["O=C(O)[C@]1(Nc2cccc(Cl)c2)CC[C@]2(CC1)C(Br)=Cc1ccccc12", 119]
]}

A = C[C@@H](COc1cccc2[nH]ccc12)CN1Cc2ccccc2[C@]12CC[C@@](Nc1cccc(Cl)c1)(C(=O)O)CC2
B = C[C@@H](COc1ccnc2c1[C@H](C)CCC2)CN1Cc2cc(F)ccc2[C@]12CC[C@@](Nc1ccc(F)c(Cl)c1)(C(=O)O)CC2
C = C[C@@H](COc1ccnc2c1[C@H](C)CCC2)CN1Cc2cc3c(cc2[C@]12CC[C@](Nc1ccc(F)c(Cl)c1)(C(=O)O)CC2)OCO3
D = Cc1ccc2c(c1)CN(C[C@@H](C)COc1ccnc3c1[C@H](C)CCC3)[C@]21CC[C@](Nc2cccc(Cl)c2)(C(=O)O)CC1
E = O=C(O)[C@]1(Nc2cccc(Cl)c2)CC[C@]2(CC1)C(CCc1ccccn1)=Cc1ccccc12
Req: Please give the order of these molecules when sorted by Ki, largest value leading. Ranked list of labels, please, in the requested order.
Resp: E, C, A, B, D

---

- measuredOn: Cy5-labelled Mcl1 (amino acids 171-321) C286S protein (UniProtKB Q07820) (Homo sapiens (Human), UniProt Q07820, C286S)
- methodNotes: Inhibition of Mcl-1 by the fluorescence quenching assay (Example A, Method B)
- Assay type: binding
metric: Ki (nM)

Some molecules with recorded Ki:
{"columns": ["molecule", "metric", "assayValue"],
 "data": [
  ["COCCCOc1cc2c(cc1Cl)C[C@H](C[C@@H](C)COc1ccnc3c1[C@H](C)CCC3)[C@]21CC[C@](Nc2cccc(Cl)c2)(C(=O)O)CC1", "Ki", 0.108],
  ["C[C@@H](COc1ccnc2c1CCC2)C[C@@H]1Cc2ccccc2[C@]12CC[C@@](Nc1cccc(Cl)c1)(C(=O)O)CC2", "Ki", 4.29],
  ["C[C@@H](COc1ccnc2c1[C@H](C)CCC2)C[C@H]1Cc2cc3c(cc2[C@]12CC[C@@](Nc1cccc(Cl)c1)(C(=O)OCOP(=O)(O)O)CC2)OCO3", "Ki", 0.371]
]}

1 = C[C@@H](COc1ccnc2c1[C@H]1CCC[C@H]1C2)C[C@H]1Cc2ccccc2[C@]12CC[C@@](Nc1cccc(Cl)c1)(C(=O)O)CC2 (single isomer, unassigned) [Example 621]
2 = CC(C)[C@@H]1CCOc2cc3c(cc2O1)C[C@H](C[C@@H](C)COc1ccnc2c1[C@H](C)CCC2)[C@]31CC[C@](Nc2cccc(Cl)c2)(C(=O)O)CC1
Req: Compare 1 and 2 and name the one whose reported Ki is smaller. State your choice using its label.
Resp: 2
(2: 4.15 nM, 1: 37.6 nM)
